- measurement.target: T1, recombinant human TIGIT (human, UniProt Q495A1 22-141, limits assumed)
- T1 construct: recombinant human TIGIT used in Carterra SPR; also called hTIGIT
- T1 sequence (looked up): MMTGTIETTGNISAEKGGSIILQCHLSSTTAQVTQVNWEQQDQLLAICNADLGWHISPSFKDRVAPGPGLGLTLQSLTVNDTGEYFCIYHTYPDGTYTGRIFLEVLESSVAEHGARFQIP
- protocol.text: SPR Carterra, average
- Protocol: Binding affinities of VHH-Fc proteins to recombinant human TIGIT were measured by SPR using a Carterra instrument (Table 10A). […] Average values reported from measurements from 1-2 samples.
pKd: −log10 of the molar value.
Decision: pKd >= 7 yields Condition met, all other cases yield Condition not met.

The following binders have reported results that may help.
TIGIT-SC98 (Fc fusion, VHH-Fc fusion in assay) VHH: EVQLVESGGGLVQPGGSLRLSCAASGNTFSGGFMGWFRQAPGKEREWVASVLRGGYTWYADSVKGRFTISADNSKNTAYLQMNSLKPEDTAVYYCTTEGFDPWGQGTLVTVSS = Condition met
TIGIT-SC181 (Fc fusion, VHH-Fc fusion in assay) VHH: EVQLVESGGGLVQPGGSLRLSCAASGFTLSSNWMGWFRQAPGKEREFVASVLRGGYTWYADSVKGRFTISADNSKNTAYLQMNSLKPEDTAVYYCARDAYYYGLWGQGTLVTVSS = Condition not met

Query: Does pKd meet or surpass 7 for TIGIT-SC201 (Fc fusion, VHH-Fc fusion in assay) VHH: EVQLVESGGGLVQPGGSLRLSCAASGFTFSPSWMGWFRQAPGKEREWVASVLRGGYTWYADSVKGRFTISADNSKNTAYLQMNSLKPEDTAVYYCTRDGGFDPWGQGTLVTVSS ?
Response: Condition not met

Query: Does pKd meet or surpass 7 for TIGIT-SC44 (Fc fusion, VHH-Fc fusion in assay) VHH: EVQLVESGGGLVQPGGSLRLSCAASGSIFGLGAMGWFRQAPGKERELVAITWGGSTTLYADSVKGRFTISADNSKNTAYLQMNSLKPEDTAVYYCATDQGQWLFDFWGQGTLVTVSS ?
Response: Condition met
